System: 926638-142-R-J1-PDC complex spheroid viability;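 further: spheroids exposed to drugs for one week before readout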
measurement.description: Anticancer human tumor 926638-142-R-J1-PDC patient-derived endometrial carcinoma cell line growth inhibition [POLQ]
condition.details: curve of first compound; second compound 1 µM
observation.type: IC50

Please give the measured IC50 for this molecule: COc1ccc([C@@H](O)c2cc(-c3ncnc4cc(N5CCOCC5)ccc34)c(F)cc2Cl)nn1 + Nc1ccc(C#CCN(C(=O)Cc2ncc(C(F)(F)F)cc2C(F)(F)F)c2ccc(F)cc2)nn1
0.708 µM

Please give the measured IC50 for this molecule: O=C(Nc1ccc(O)c(NS(=O)(=O)c2ccc(F)cc2)c1)c1ccc(-c2ccccc2)cc1 + Cc1cccc(N(C)C(=O)C2C(O)CCN2c2nc(C)cc(C(F)(F)F)c2C#N)c1
> 10 µM

Please give the measured IC50 for this molecule: COc1cc2cc(C(=O)CCC(=O)O)sc2cc1OC + Cc1cccc(N(C)C(=O)C2C(O)CCN2c2nc(C)cc(C(F)(F)F)c2C#N)c1
> 10 µM

Please give the measured IC50 for this molecule: C=CC(=O)N1CCN(c2nc(=O)n(-c3c(C)ccnc3C(C)C)c3nc(-c4c(O)cccc4F)c(F)cc23)C(C)C1 (stereo not given) + Cc1cccc(N(C)C(=O)C2C(O)CCN2c2nc(C)cc(C(F)(F)F)c2C#N)c1
> 10 µM

Please give the measured IC50 for this molecule: COc1cc(C2c3cc4c(cc3C(OC3OC5COC(C)OC5C(O)C3O)C3COC(=O)C23)OCO4)cc(OC)c1O (stereo not given) + COC1C(OC(N)=O)C(O)C(Oc2ccc3c(O)c(NC(=O)c4ccc(O)c(CC=C(C)C)c4)c(=O)oc3c2C)OC1(C)C
> 10 µM

Hey, just so you know, these numbers are from PubChem BioAssay AID1963826.
